- TEST DESCRIPTION: Maximum time corresponding to maximum concentration after administration to rats at a dose of 1.5 mg/kg intravenously
- Assay type: ADME, organism-based
- Parameters: dose 1.5 mg/kg, route intravenous
- STATED CONDITIONS: rat, in vivo, iv
READOUT NAME: Tmax (min)
Your answer is read as min, so omit the unit and give the number.

Field Tmax (entry CC(C(=O)O)c1ccc(-c2ccccc2)c(F)c1 (stereo unspecified) [FLURBIPROFEN] ) reads 18

* * *

- ASSAY SYSTEM: Amyloid-beta precursor protein (Homo sapiens, UniProt P05067)
- Sequence (P05067 whole entry): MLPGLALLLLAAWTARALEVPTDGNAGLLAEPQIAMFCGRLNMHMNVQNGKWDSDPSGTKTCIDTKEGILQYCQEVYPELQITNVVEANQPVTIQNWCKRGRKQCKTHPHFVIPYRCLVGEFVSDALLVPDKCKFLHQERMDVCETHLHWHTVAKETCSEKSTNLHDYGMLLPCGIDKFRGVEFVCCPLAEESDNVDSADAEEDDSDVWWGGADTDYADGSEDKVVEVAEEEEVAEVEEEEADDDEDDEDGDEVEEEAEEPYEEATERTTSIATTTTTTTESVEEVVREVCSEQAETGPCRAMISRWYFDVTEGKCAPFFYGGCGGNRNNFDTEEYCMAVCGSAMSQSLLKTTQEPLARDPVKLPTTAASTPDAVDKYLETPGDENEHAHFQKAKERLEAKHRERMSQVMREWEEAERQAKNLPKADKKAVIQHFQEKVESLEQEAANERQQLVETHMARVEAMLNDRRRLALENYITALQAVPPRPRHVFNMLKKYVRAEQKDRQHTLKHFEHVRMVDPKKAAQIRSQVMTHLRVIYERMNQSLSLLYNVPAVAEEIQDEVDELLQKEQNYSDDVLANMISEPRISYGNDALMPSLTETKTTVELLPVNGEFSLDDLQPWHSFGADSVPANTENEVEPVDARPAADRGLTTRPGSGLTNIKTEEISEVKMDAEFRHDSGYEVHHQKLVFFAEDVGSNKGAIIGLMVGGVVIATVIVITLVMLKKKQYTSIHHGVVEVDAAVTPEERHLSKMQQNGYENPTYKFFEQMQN
- STATED CONDITIONS: at 100 µM
- Description: Percent inhibition against beta-amyloid-42 (Abeta42) secretion was evaluated in human neuroglioma cells (H4-APP695NL) at 100 uM
READOUT NAME: inhibition (%)
Your answer is read as %, so omit the unit and give the number.

Field inhibition (entry CC(C(=O)O)c1ccc(-c2ccc(-c3ccc(O)cc3)cc2)c(F)c1 (stereo not drawn) ) reads 75

Field inhibition (entry `CC1(C)CCC(c2ccc(-c3ccc(C4(C(=O)O)CC4)cc3F)cc2)CC1` ) reads 75

Field inhibition (entry `O=C(O)C1(c2ccc(-c3ccc(-c4ccc(O)cc4)c(F)c3)c(F)c2)CC1` ) reads 80

Field inhibition (entry Cc1ccc(-c2ccc(C(C)C(=O)O)cc2F)cc1 (stereo not drawn) ) reads 44

Field inhibition (entry `CC(C)(C(=O)O)c1ccc(-c2ccc(C(F)(F)F)cc2)c(F)c1` ) reads 58

Field inhibition (entry CC(C(=O)O)c1ccc(-c2ccc(Cl)c(Cl)c2)c(F)c1 (stereo not drawn) ) reads 87

Field inhibition (entry CC(C(=O)O)c1ccc(-c2ccccc2)c(F)c1 (stereo not drawn) ) reads 30

Field inhibition (entry CC(C(=O)O)c1ccc(-c2ccccc2C(F)(F)F)c(F)c1 (stereo not drawn) ) reads 25

Field inhibition (entry `O=C(O)C1(c2ccc(-c3ccc(C4CCOCC4)cc3)c(F)c2)CC1` ) reads 52

Field inhibition (entry `CC1(C)CC(Oc2ccc(-c3ccc(C4(C(=O)O)CC4)cc3F)cc2)CC(C)(C)C1` ) reads 97

Field inhibition (entry CC(C(=O)O)c1ccc(-c2ccc(OC3CCCCC3)cc2)c(F)c1 (stereo not drawn) ) reads 76

Field inhibition (entry `O=C(O)C1(c2ccc(-c3csc4ccccc34)c(F)c2)CC1` ) reads 49

Field inhibition (entry `O=C(O)C1(c2ccc(-c3ccc(-c4ccc(O)cc4)cc3)c(F)c2)CC1` ) reads 99

Field inhibition (entry CC(C(=O)O)c1ccc(-c2ccc(C3CCCCC3)cc2)c(F)c1 (stereo not drawn) ) reads 79

Field inhibition (entry CC(C(=O)O)c1ccc(-c2ccc(C(F)(F)F)cc2)c(F)c1 (stereo not drawn) ) reads 60

Field inhibition (entry CC(C(=O)O)c1ccc(-c2ccc(C(F)(F)F)cc2)cc1C(F)(F)F (stereo not drawn) ) reads 57

Field inhibition (entry `O=C(O)C1(c2ccc(-c3ccc(-c4ccc(F)cc4)c(F)c3)c(F)c2)CC1` ) reads 75

Field inhibition (entry COc1ccc(-c2ccc(C(C)C(=O)O)cc2F)cc1 (stereo not drawn) ) reads 67

* * *

- ASSAY SYSTEM: UniProtKB P08684
- Sequence (P08684 whole entry): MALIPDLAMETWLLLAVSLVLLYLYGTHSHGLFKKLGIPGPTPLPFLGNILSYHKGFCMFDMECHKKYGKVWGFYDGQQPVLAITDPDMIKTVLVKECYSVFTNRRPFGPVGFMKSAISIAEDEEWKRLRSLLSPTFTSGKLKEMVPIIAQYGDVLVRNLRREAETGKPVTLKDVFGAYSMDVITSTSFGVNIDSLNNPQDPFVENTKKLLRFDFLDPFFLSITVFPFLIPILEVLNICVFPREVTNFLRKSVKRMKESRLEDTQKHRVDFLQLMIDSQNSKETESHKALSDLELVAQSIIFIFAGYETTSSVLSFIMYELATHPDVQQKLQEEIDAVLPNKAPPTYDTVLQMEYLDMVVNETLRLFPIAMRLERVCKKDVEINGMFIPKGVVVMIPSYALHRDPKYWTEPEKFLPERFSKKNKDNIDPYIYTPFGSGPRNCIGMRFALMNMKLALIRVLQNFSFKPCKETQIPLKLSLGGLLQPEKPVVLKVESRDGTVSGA
- TEST DESCRIPTION: Inhibition of cytochrome P450 3A4 at 100 uM; activation observed
- Type: ADME
READOUT NAME: IC50 (µM)
Your answer is read as µM, so omit the unit and give the number.

Field IC50 (entry `O=C(O)C1(c2ccc(-c3ccc(C4CCCCC4)cc3)c(F)c2)CC1` ) reads 59

* * *

- ASSAY SYSTEM: Cytochrome P450 2D6 (Homo sapiens)
- Sequence (P10635 whole entry, canonical isoform): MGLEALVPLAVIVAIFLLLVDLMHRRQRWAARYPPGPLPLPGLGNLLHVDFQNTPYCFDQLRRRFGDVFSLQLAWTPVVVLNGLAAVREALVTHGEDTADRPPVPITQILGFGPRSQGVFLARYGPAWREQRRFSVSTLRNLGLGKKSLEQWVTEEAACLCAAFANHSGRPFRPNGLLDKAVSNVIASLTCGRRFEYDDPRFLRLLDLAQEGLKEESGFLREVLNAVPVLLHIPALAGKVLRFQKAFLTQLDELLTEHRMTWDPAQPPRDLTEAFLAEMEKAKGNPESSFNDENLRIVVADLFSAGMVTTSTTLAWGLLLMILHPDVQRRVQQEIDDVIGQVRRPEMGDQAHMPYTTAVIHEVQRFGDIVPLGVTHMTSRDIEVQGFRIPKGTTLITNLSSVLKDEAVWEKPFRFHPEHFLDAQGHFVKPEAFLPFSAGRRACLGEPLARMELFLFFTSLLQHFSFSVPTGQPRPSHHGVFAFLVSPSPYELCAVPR
- TEST DESCRIPTION: Interaction with human cytochrome P450 isoform 2D6 expressed in baculovirus-insect cells
READOUT NAME: pIC50
Reminder that pIC50 means the negative base-10 logarithm of the concentration expressed in mol/L.

Field pIC50 (entry `CC1(C)CCC(c2ccc(-c3ccc(C4(C(=O)O)CC4)cc3F)cc2)CC1` ) reads 5.28

Field pIC50 (entry `CC1(C)CC(Oc2ccc(-c3ccc(C4(C(=O)O)CC4)cc3F)cc2)CC(C)(C)C1` ) reads 4.52

Field pIC50 (entry `O=C(O)C1(c2ccc(-c3ccc(-c4ccc(O)cc4)cc3)c(F)c2)CC1` ) reads 4.67

* * *

- ASSAY SYSTEM: Amyloid-beta precursor protein (Homo sapiens);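 further: reduction of Abeta42 secretion in H4-APP695NL human neuroglioma cells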
- STATED CONDITIONS: at 100 µM
Assignment: determine reported inhibition for the given compounds.
Your answer is read as %, so omit the unit and give the number.

Field inhibition (entry CC(C(=O)O)c1ccc(-c2ccncc2)c(F)c1 (stereo unspecified) ) reads 11

Field inhibition (entry `O=C(O)C1(c2ccc(-c3ccc(Cl)c(Cl)c3)c(F)c2)CC1` ) reads 79

Field inhibition (entry CC(C(=O)O)c1ccc(-c2ccsc2)c(F)c1 (stereo unspecified) ) reads 40

Field inhibition (entry `O=C(O)C1(c2ccc(-c3ccc(OC4CCOCC4)cc3)c(F)c2)CC1` ) reads 28

Field inhibition (entry CC(C(=O)NO)c1ccc(-c2ccc(C(F)(F)F)cc2)c(F)c1 (stereo unspecified) ) reads 31

Field inhibition (entry `O=C(O)C1(c2ccc(-c3ccccc3)c(F)c2)CC1` ) reads 40

Field inhibition (entry O=C(O)C1(c2ccc(-c3ccc(OC4CCC(C(F)(F)F)CC4)cc3)c(F)c2)CC1 (stereo unspecified) ) reads 70

Field inhibition (entry CC(C(=O)O)c1ccc(-c2ccc3c(c2)OCO3)c(F)c1 (stereo unspecified) ) reads 42

Field inhibition (entry `O=C(O)C1(c2ccc(-c3ccc(C(F)(F)F)cc3)c(F)c2)CC1` ) reads 55

Field inhibition (entry CC(C(=O)O)c1ccc(-c2ccc(O)cc2)c(F)c1 (stereo unspecified) ) reads 27

Field inhibition (entry CC(C(=O)O)c1ccc(-c2cccc(Cl)c2)c(F)c1 (stereo unspecified) ) reads 58

* * *

- TEST DESCRIPTION: In vivo steady state metabolic clearance of the compound
- STATED CONDITIONS: rat
MET if Clearance is below 70 mL/h. NOT MET if not; exact matches included in NOT MET.

**Query** Identify whether the molecule `O=C(O)C1(c2ccc(-c3ccc(C(F)(F)F)cc3)c(F)c2)CC1` records Clearance below 70 mL/h.
**Result** MET

**Query** Identify whether the molecule CC(c1ccc(-c2ccc(C(F)(F)F)cc2)c(F)c1)c1noc(O)n1 (stereo not given) records Clearance below 70 mL/h.
**Result** MET

**Query** Identify whether the molecule CC(C(=O)O)c1ccc(-c2ccccc2)c(F)c1 (stereo not given) records Clearance below 70 mL/h.
**Result** MET

**Query** Identify whether the molecule `O=C(O)C1(c2ccc(-c3ccc(C4CCOCC4)cc3)c(F)c2)CC1` records Clearance below 70 mL/h.
**Result** MET

**Query** Identify whether the molecule CC(C(=O)NS(C)(=O)=O)c1ccc(-c2ccc(C(F)(F)F)cc2)c(F)c1 (stereo not given) records Clearance below 70 mL/h.
**Result** MET

**Query** Identify whether the molecule `O=C(O)C1(c2ccc(-c3ccc(-c4ccc(F)cc4)c(F)c3)c(F)c2)CC1` records Clearance below 70 mL/h.
**Result** MET

**Query** Identify whether the molecule `O=C(O)C1(c2ccc(-c3csc4ccccc34)c(F)c2)CC1` records Clearance below 70 mL/h.
**Result** NOT MET

**Query** Identify whether the molecule CC(C(=O)O)c1ccc(-c2ccc(OC3CCCCC3)cc2)c(F)c1 (stereo not given) records Clearance below 70 mL/h.
**Result** NOT MET

**Query** Identify whether the molecule `CC1(C)CCC(c2ccc(-c3ccc(C4(C(=O)O)CC4)cc3F)cc2)CC1` records Clearance below 70 mL/h.
**Result** NOT MET

* * *

- TEST DESCRIPTION: Total body clearance after administration to rats at a dose of 1.5 mg/kg intravenously
- Type: ADME, organism-based
- Design: dose 1.5 mg/kg, route intravenous
- STATED CONDITIONS: rat, in vivo, iv
READOUT NAME: Clearance

Field Clearance (entry CC(C(=O)O)c1ccc(-c2ccccc2)c(F)c1 (stereo unspecified) [FLURBIPROFEN] ) reads 0.318 mL/min/kg

* * *

Assignment: determine reported inhibition for the given compounds.
- ASSAY SYSTEM: Prostaglandin G/H synthase 1 (Rattus norvegicus)
- Sequence (whole entry): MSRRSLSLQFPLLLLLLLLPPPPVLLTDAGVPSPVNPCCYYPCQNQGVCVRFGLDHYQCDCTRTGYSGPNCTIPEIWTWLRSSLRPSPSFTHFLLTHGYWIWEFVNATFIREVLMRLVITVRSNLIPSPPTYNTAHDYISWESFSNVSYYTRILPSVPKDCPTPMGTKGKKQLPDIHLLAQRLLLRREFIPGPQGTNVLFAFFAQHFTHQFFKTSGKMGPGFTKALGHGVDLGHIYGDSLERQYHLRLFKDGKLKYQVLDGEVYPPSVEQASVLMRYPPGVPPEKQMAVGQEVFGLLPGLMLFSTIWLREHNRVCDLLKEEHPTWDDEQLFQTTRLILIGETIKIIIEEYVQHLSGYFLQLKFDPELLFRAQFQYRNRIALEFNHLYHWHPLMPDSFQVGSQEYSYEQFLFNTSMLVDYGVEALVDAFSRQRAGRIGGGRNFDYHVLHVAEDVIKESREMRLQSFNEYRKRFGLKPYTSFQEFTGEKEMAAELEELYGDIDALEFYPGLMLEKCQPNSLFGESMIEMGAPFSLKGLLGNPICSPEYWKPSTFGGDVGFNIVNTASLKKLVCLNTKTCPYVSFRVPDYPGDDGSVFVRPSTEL
- TEST DESCRIPTION: Percent inhibition against cyclooxygenase-1 at 100 uM in rat blood
Your answer is read as %, so omit the unit and give the number.

Field inhibition (entry CC(C(=O)O)c1ccc(-c2cc(Cl)cc(Cl)c2)c(F)c1 (stereo not drawn) ) reads 65

Field inhibition (entry `O=C(O)C1(c2ccc(-c3ccc(C4CCCCC4)cc3)c(F)c2)CC1` ) reads 12

Field inhibition (entry CC(C(=O)O)c1ccc(-c2ccc(Cl)c(Cl)c2)c(F)c1 (stereo not drawn) ) reads 78

Field inhibition (entry CC(C(=O)O)c1ccc(-c2ccc(C3CCCCC3)cc2)c(F)c1 (stereo not drawn) ) reads 18

Field inhibition (entry `O=C(O)C1(c2ccc(-c3ccc(-c4ccc(F)cc4)c(F)c3)c(F)c2)CC1` ) reads 18

Field inhibition (entry CC(C(=O)O)c1ccc(-c2ccc(OC3CCCCC3)cc2)c(F)c1 (stereo not drawn) ) reads 20

Field inhibition (entry CC(c1ccc(-c2ccc(C(F)(F)F)cc2)c(F)c1)c1nnn[nH]1 (stereo not drawn) ) reads 9

Field inhibition (entry `O=C(O)C1(c2ccc(-c3ccccc3)c(F)c2)CC1` ) reads 26

Field inhibition (entry `CC1(C)CCC(c2ccc(-c3ccc(C4(C(=O)O)CC4)cc3F)cc2)CC1` ) reads 17

Field inhibition (entry CC(C(=O)O)c1ccc(-c2csc3ccccc23)c(F)c1 (stereo not drawn) ) reads 68

Field inhibition (entry CC(C(=O)O)c1ccc(-c2ccc(-c3ccc(O)cc3)cc2)c(F)c1 (stereo not drawn) ) reads 17

Field inhibition (entry `CC(C)(C(=O)O)c1ccc(-c2ccc(C3CCCCC3)cc2)c(F)c1` ) reads 12

Field inhibition (entry CC(C(=O)O)c1ccc(-c2ccc(C(F)(F)F)cc2)c(F)c1 (stereo not drawn) ) reads 40
